B1: glmS ribozyme (parent)
chain: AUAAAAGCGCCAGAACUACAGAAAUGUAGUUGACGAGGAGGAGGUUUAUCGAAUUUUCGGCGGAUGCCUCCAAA

variants of: B1; experiment: self-cleavage kobs at 2500 uM GlcN6P; higher = faster cleavage; RNA array; details: with glucosamine-6-phosphate
This sample holds only a part of the variants without activity.

Variant identifier	self-cleavage kobs at 2500 uM GlcN6P
A12C C34U	< 1e-05 s⁻¹
A15G C16G A42G C67G	0.000115 s⁻¹
A14U A48G C58A A64U C70G	5.92e-05 s⁻¹
C8A A39G A48U	< 1e-05 s⁻¹
G35A U57A	< 1e-05 s⁻¹
C8G G63U U65C	< 1e-05 s⁻¹
A20U U56C	0.0029 s⁻¹
A12G U56C G60A	< 1e-05 s⁻¹
G29U G32C A42C U57G	< 1e-05 s⁻¹
G13C C58G G59A	< 1e-05 s⁻¹
G7U G9A G29A A39G	< 1e-05 s⁻¹
A14G G32U U45A	0.00147 s⁻¹
C34A A42G G66U	< 1e-05 s⁻¹
C11A G43C C61G	< 1e-05 s⁻¹
G7U G35A G59C	< 1e-05 s⁻¹
A14U G29U A48U A53U G62U	< 1e-05 s⁻¹
G7U A12C G41A	< 1e-05 s⁻¹
U31G A33C U46G A53G G59A G63A	< 1e-05 s⁻¹
U31C C34G G35U C68G	0.000147 s⁻¹
A15C G35C U69C	< 1e-05 s⁻¹
C8U G38C C61A	< 1e-05 s⁻¹
A33C A39G G40U U49A	< 1e-05 s⁻¹
U2C U56C	0.00287 s⁻¹
C8U C16U G60C C71G	< 1e-05 s⁻¹
A33C G35A G51C	< 1e-05 s⁻¹
C10U A12G G63U	< 1e-05 s⁻¹
G9C C11A G35A G37U A39C G59U	< 1e-05 s⁻¹
A12U U30A U45A A53U G62C	< 1e-05 s⁻¹
G26U A48G	7.11e-05 s⁻¹
C10A A39U U69G	< 1e-05 s⁻¹
G35C G62U A64U	< 1e-05 s⁻¹
C8G U30C A36C U69C	< 1e-05 s⁻¹
C10U A12U G63C C70A C71A	5.29e-05 s⁻¹
G7C C11U U54A	< 1e-05 s⁻¹
A14G A39G U69A	0.000786 s⁻¹
G9A G43C U45G U65C	< 1e-05 s⁻¹
U30A U31A U57A C71U	0.000133 s⁻¹
C11U C16G G32A A42U C70U	< 1e-05 s⁻¹
U31A A39U C70U	0.00182 s⁻¹
C8U C10A A15C	< 1e-05 s⁻¹
G29U A36U C70G	0.000444 s⁻¹
C16U C34A A36C C58A	< 1e-05 s⁻¹
G7U A39G U56G C70A	< 1e-05 s⁻¹
C10G G44U C50G	< 1e-05 s⁻¹
G29A U65A C70U	0.000148 s⁻¹
C8A G32C G40U U55A	< 1e-05 s⁻¹
U30A G63A	< 1e-05 s⁻¹
A14G A53C U57G	0.000168 s⁻¹
A12U A15C G41C C61U G66A	< 1e-05 s⁻¹
C34U C50G C67A	8.66e-05 s⁻¹
C10A G35C G51U	< 1e-05 s⁻¹
C10U A36G U46C	< 1e-05 s⁻¹
C8U A15G G43A	< 1e-05 s⁻¹
C8U A42G G63A	< 1e-05 s⁻¹
A12G G59C G63C C67A	< 1e-05 s⁻¹
C16G G44C C68U	< 1e-05 s⁻¹
U30A G32A A39G	0.000618 s⁻¹
A15C G32U G38C G59U	< 1e-05 s⁻¹
A12C G35C	< 1e-05 s⁻¹
C10U G60C G62U	< 1e-05 s⁻¹
A15C U45G U54A	0.000589 s⁻¹
C34A G43A U54G	< 1e-05 s⁻¹
C11U U30G C68G	< 1e-05 s⁻¹
A14C A39G C58G G60U G62U	< 1e-05 s⁻¹
C8A C16U U56A	< 1e-05 s⁻¹
C11U A12G C16U G40A C68U	< 1e-05 s⁻¹
A39C U47A C50A U56C	< 1e-05 s⁻¹
G26U G29U U55A C70A	8.18e-05 s⁻¹
C10U A12U A53U	4.13e-05 s⁻¹
A12G U45A C70G	0.000143 s⁻¹
G9U U31A C71U	< 1e-05 s⁻¹
G38C G41A G51U	< 1e-05 s⁻¹
G9C U30A G44U G59U C61U G66C C70U	< 1e-05 s⁻¹
C8A C61U A64C C67U	< 1e-05 s⁻¹
C16A U31G G32U	9.46e-05 s⁻¹
C11U U31G A53C	0.000433 s⁻¹
A12C G40U U54A	0.000324 s⁻¹
A33U U55G C58G	< 1e-05 s⁻¹
C10G C11G G37C A53G	< 1e-05 s⁻¹
G9U A14U U47A	< 1e-05 s⁻¹
C10U C11A A12G G41C	< 1e-05 s⁻¹
C16G G62C	< 1e-05 s⁻¹
G7A U31C G60U	< 1e-05 s⁻¹
A39C G63C	< 1e-05 s⁻¹
U31C G35C	< 1e-05 s⁻¹
A12C A36G G40U G43U U54G	< 1e-05 s⁻¹
G13U G44U C68U	< 1e-05 s⁻¹
U30A G32U C50A	< 1e-05 s⁻¹
G32U A39U G60U	< 1e-05 s⁻¹
G37A C68A C70G	< 1e-05 s⁻¹
A12G G59C C67U	4.19e-05 s⁻¹
